# key: entry, value: pIC50
# measurement-target: KRAS G12S (Homo sapiens (Human), UniProt P01116+P62937, G12S)
# Sequence (P01116-2 other isoform, or with tags, fused parts or gaps G12S): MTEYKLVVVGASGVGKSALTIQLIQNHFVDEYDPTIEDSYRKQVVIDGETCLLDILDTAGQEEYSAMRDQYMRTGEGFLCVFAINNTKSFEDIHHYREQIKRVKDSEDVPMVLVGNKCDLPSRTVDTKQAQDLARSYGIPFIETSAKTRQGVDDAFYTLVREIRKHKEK
# Sequence (P62937 whole entry): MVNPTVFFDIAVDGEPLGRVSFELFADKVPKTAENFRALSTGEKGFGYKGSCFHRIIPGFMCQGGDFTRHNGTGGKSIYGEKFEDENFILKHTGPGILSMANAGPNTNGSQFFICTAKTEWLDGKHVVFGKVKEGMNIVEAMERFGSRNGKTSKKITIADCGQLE
# assay-comment: Ras-Raf (BRAF RBD) disruption / FRET / MOA assay, KRAS G12S
# Assay type: biochemical
# stated-conditions: Ras-Raf disruption/FRET/MOA assay; class symbols; read-out: KRAS G12S FRET data IC50
pIC50: −log10 of the molar value.

As a guide, the following entries are already answered.
>  <compound>
C=CC(=O)N1CC2(CCN([C@H](C(=O)N[C@H]3Cc4cc(O)cc(c4)-c4ccc5c(c4)c(c(-c4ccccc4CCOC)n5CC)CC(C)(C)COC(=O)[C@@H]4CCCN(N4)C3=O)C(C)C)C2=O)C1

>  <pIC50>
5.00 to 6.00

$$$$
>  <compound>
CCn1c(-c2cccnc2[C@H](C)OC)c2c3cc(ccc31)-c1csc(n1)C[C@H](NC(=O)C[C@H](C)OC1CN(C(=O)C#CC(C)(C)N(C)C)C1)C(=O)N1CCC[C@H](N1)C(=O)OCC(C)(C)C2 (atropisomer, axis not shown)

>  <pIC50>
5.00 to 6.00

$$$$

Please turn your attention to the following entry.
Prompt: Query (compound): C/C=C/S(=O)(=O)N1CC[C@H](C(=O)N(C)[C@H](C(=O)N[C@H]2Cc3cc(O)cc(c3)-c3ccc4c(c3)c(c(-c3cccnc3[C@H](C)OC)n4CC)CC(C)(C)COC(=O)[C@@H]3CCCN(N3)C2=O)C(C)C)C1 (atropisomer, axis not shown) ; field requested: pIC50
Completion: 6.00 to 7.00
